# credit: ChEMBL document CHEMBL5352417

Test: Neurotoxicity against mouse BV-2 cells incubated for 24 hrs by MTT assay
Assay type: toxicity, cell-based
Settings: read-out: LD50
So basically: is CC50 at 24 h under 30 µM? Then Satisfied. Not under? Then Not satisfied.

I wonder whether CCCN(CCCc1ccccc1)Cc1ccc2ccccc2c1 has CC50 at 24 h below 30 µM. Can you tell? Satisfied

Input CCCCN(CC(=O)Nc1ccccc1C)Cc1ccc2ccccc2c1 ; condition: CC50 at 24 h strictly below 30 µM. Does it hold? Satisfied

# check: CC50 at 24 h < 30 µM for Cc1cccc(NC(=O)CN(Cc2ccc3ccccc3c2)Cc2ccco2)c1 Satisfied

Confirm or reject: CC50 at 24 h of CCCN(CC(=O)Nc1ccccc1C)Cc1ccc2ccccc2c1 lies strictly below 30 µM Satisfied

Consider O=C(CN(Cc1ccco1)Cc1c[nH]c2ccccc12)Nc1ccccc1 . Does its CC50 at 24 h lie strictly below 30 µM? Satisfied

Does the reported CC50 at 24 h of Cc1ccccc1NC(=O)CN(Cc1ccc2ccccc2c1)CC(C)C stay below 30 µM? Not satisfied

---

Target: Cholinesterase (Equus caballus, UniProt P81908)
Sequence (P81908 whole entry): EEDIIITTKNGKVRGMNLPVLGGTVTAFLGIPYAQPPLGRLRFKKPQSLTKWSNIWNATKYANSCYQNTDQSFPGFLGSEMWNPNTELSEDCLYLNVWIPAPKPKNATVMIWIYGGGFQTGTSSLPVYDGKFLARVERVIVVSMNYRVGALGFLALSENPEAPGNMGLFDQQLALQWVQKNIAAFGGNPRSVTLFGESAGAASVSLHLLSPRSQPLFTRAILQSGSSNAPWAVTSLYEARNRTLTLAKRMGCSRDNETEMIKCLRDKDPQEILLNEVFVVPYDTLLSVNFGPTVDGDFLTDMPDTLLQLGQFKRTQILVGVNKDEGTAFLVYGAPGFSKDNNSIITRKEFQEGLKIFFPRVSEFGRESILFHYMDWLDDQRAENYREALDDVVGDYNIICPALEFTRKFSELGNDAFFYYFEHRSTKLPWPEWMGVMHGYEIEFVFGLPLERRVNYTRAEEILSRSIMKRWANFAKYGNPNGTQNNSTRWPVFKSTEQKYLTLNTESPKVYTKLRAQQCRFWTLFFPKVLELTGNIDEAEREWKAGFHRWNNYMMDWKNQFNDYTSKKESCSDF
Experiment: Inhibition of horse serum BuChE using butyrylthiocholine iodide as substrate measured for 3 mins by Ellman's method
Label 1 (yes) when IC50 < 4 µM; otherwise 0 (no).

Example cases with answers are listed next.
>>> class_name("Cc1ccccc1NC(=O)CN(Cc1ccc2ccccc2c1)C1CCCCC1")
"0 (no)"
>>> class_name("O=C(CN(Cc1ccccc1)Cc1ccco1)Nc1cnc2ccccc2c1")
"0 (no)"
>>> class_name("COc1cc(NC(=O)CN(Cc2ccccc2)Cc2ccco2)cc(OC)c1OC")
"0 (no)"

Please indicate whether the reported IC50 of CCCN(CCCc1ccccc1)Cc1ccc2ccccc2c1 is strictly below 4 µM. 1 (yes)

Lab log: compare recorded IC50 with 4 µM; is it strictly lower for Cc1cccc(NC(=O)CN(Cc2ccc3ccccc3c2)Cc2ccco2)c1 ? 1 (yes)

Confirm or reject: IC50 of O=C(CN(Cc1ccco1)Cc1cccc2ccccc12)Nc1ccccc1 lies strictly below 4 µM 0 (no)

---

Catalogue of compounds with associated CC50 at 24 h
Experiment: Neurotoxicity against mouse HT-22 cells incubated for 24 hrs by MTT assay
Type: toxicity, cell-based
Settings: read-out: LD50
Numeric answer only, unit µM assumed.

Some solved entries appear below for comparison.
>>> value_reported("Cc1ccccc1NC(=O)CN(Cc1ccc2ccccc2c1)CC(C)C")
18.9
>>> value_reported("Cc1cccc(NC(=O)CN(Cc2ccccc2)Cc2ccco2)c1C")
46.8
>>> value_reported("O=C(CN(Cc1ccco1)Cc1c[nH]c2ccccc12)Nc1ccccc1")
59.6
>>> value_reported("CCN(CC)CCN(CC(=O)Nc1ccccc1C)Cc1ccc2ccccc2c1")
85.1

With those in mind, consider the next compound.
CC50 at 24 h measured on CCCN(CCCc1ccccc1)Cc1ccc2ccccc2c1 = 54.6

---

IC50 values, listed per item
Molecular target: Cholinesterase (Equus caballus)
Experiment: Inhibition of horse serum BuChE using butyrylthiocholine iodide as substrate measured for 3 mins by Ellman's method
// note: answer is a bare numeric in µM

>>> value_reported("O=C(CN(Cc1ccccc1)Cc1ccco1)Nc1cccc2ccccc12")
3.53

Data point: O=C(CN(Cc1ccco1)Cc1ccccc1[N+](=O)[O-])Nc1ccccc1 ; IC50 = 1.3

Lookup result for Cc1ccc(NC(=O)CN(Cc2ccccc2)Cc2ccco2)cc1 ; measured IC50: 149

Summary for this compound, O=C(CN(Cc1ccccc1)Cc1ccco1)Nc1ccccc1 : IC50 is 15.4

Recorded result, Cc1cccc(NC(=O)CN(Cc2ccc3ccccc3c2)Cc2ccco2)c1C , IC50: 11

Kindly note the recorded IC50 for COc1cccc(NC(=O)CN(Cc2ccccc2)Cc2ccco2)c1 , which is 24.8

Per the records, this compound ( O=C(CN(Cc1ccccc1)Cc1ccco1)Nc1ccc(F)cc1 ) has IC50 equal to 28.3
